Source of measurements: patent US20260055126A1

target: recombinant TEAD2 protein (218-447, Uniprot ID: Q15562) (Homo sapiens (Human)); assay: Thermal shift assay (protein melting point curve), TEAD2; type: binding; conditions: 10 μM TEAD protein, 50 μM test compound
Sequence (Q15562 218-447): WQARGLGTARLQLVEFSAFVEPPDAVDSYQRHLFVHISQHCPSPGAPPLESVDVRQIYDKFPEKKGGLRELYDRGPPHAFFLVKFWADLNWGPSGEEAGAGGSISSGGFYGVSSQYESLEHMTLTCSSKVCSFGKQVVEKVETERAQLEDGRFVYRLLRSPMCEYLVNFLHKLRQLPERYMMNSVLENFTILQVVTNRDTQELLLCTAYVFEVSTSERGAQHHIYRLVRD
readout_kind: Δ T m (TEAD2)

Guide cases for Δ T m (TEAD2), answers given:
compound: CP(C)(=O)c1ccc(NCc2ccc(C(F)(F)F)cc2)c(-c2cn(C3COC3)cn2)c1 [Compound 47]
Δ T m (TEAD2): +
//
compound: CP(C)(=O)c1ccc(NCC2CCC(C(F)(F)F)CC2)c(-c2ncccn2)c1 (centres unmarked) [Compound 46]
Δ T m (TEAD2): ++
//
compound: Cn1cnc(-c2cc(P3(=O)CCNCC3)ccc2Nc2ccc(C(F)(F)F)cc2)c1 [Compound 1]
Δ T m (TEAD2): +++
//
compound: Cc1nc(-c2cc(P(C)(C)=O)ccc2NCc2ccc(C(F)(F)F)cc2)no1 [Compound 5]
Δ T m (TEAD2): +++
//
compound: CC1OCCC1S(=O)(=O)c1csc(-c2cc(P(C)(C)=O)ccc2Nc2ccc(C(F)(F)F)cc2)n1 (centres unmarked) [Compound 23]
Δ T m (TEAD2): +
//
compound: CP(C)(=O)c1ccc(NCc2cccc(C(F)(F)F)c2)c(-c2nccc(OC3COC3)n2)c1 [Compound 52]
Δ T m (TEAD2): ++
//
compound: CP(C)(=O)c1ccc(Nc2ccc(C(F)(F)F)cc2)c(-c2nnc(CO)o2)c1 [Compound 11]
Δ T m (TEAD2): ++
//
compound: CP(C)(=O)c1cc(-c2nccc(OC3COC3)n2)c(Nc2ccc(C(F)(F)F)cc2)s1 [Compound 24]
Δ T m (TEAD2): ++
//
compound: CP(C)(=O)c1ccc(Nc2ccc(S(F)(F)(F)(F)F)cc2)c(-c2nccc(OC3COC3)n2)c1 [Compound 74]
Δ T m (TEAD2): +
//
compound: CP(C)(=O)c1ccc(Nc2ccc(C(F)(F)F)cc2)c(-c2nccc(OC3CCOC3)n2)c1 (centres unmarked) [Compound 18]
Δ T m (TEAD2): +

# lookup: Δ T m (TEAD2) of CP(C)(=O)c1ccc(Nc2ccc(C(F)(F)F)cc2)c(-c2ncn3ccccc23)c1 [Compound 40]
++

Param item = CP(C)(=O)c1ccc(Nc2ccc(C(F)(F)F)cc2)c(-c2cnn(C3CCOCC3)c2)c1 [Compound 51] ; retrieve measured Δ T m (TEAD2).
++

What measured Δ T m (TEAD2) goes with CP(C)(=O)c1ccc(NCc2cc(F)cc(F)c2)c(-c2nccc(OC3COC3)n2)c1 [Compound 62] ?
+

Given CCP(=O)(CC)c1ccc(Nc2ccc(C(F)(F)F)cc2)c(-c2nccc(OC3COC3)n2)c1 [Compound 66] , state its recorded Δ T m (TEAD2).
+

---

biological target: recombinant TEAD4 protein (217-434, Uniprot ID: Q15561) (Homo sapiens (Human), UniProt Q15561); test: Thermal shift assay (protein melting point curve), TEAD4; type: binding; settings: 10 μM TEAD protein, 50 μM test compound
Sequence (Q15561 217-434): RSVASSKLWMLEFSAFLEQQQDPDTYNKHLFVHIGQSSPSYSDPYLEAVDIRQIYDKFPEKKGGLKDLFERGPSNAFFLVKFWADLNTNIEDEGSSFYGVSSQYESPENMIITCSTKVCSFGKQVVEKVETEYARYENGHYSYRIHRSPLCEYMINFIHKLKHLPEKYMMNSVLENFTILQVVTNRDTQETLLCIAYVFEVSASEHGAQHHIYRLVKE
readout_kind: Δ T m (TEAD4)

Worked cases, answers included:
mol_smiles: COCc1cccn(-c2cc(P(C)(C)=O)ccc2NCc2ccc(C(F)(F)F)cc2)c1=O
Δ T m (TEAD4): +

mol_smiles: CP(C)(=O)c1ccc(NCc2ccc(C(F)(F)F)cc2)c(-c2cn(C3COC3)cn2)c1
Δ T m (TEAD4): ++

mol_smiles: CP(C)(=O)c1ccc(Nc2ccc(C(F)(F)F)cc2)c(-c2nccc(OC(F)F)n2)c1
Δ T m (TEAD4): ++

mol_smiles: CP(C)(=O)c1ccc(Nc2ccc(C(F)(F)F)cc2)c(-c2nnc(NCCO)o2)c1
Δ T m (TEAD4): +

Given the molecule `CCP(=O)(CC)c1ccc(Nc2ccc(C(F)(F)F)cc2)c(-c2nccc(OC3COC3)n2)c1` , what is its reported Δ T m (TEAD4)?
++++

I have this molecule here, `CP(C)(=O)c1cc(-c2nccc(OC3COC3)n2)c(Nc2ccc(C(F)(F)F)cc2)s1` , and I need its recorded Δ T m (TEAD4).
++++

Looking for the measured Δ T m (TEAD4) of `CP(C)(=O)c1ccc(NCc2ccc(C(F)(F)F)cc2)c(-n2cc(C3CCOCC3)cn2)c1` , can you help?
+

---

target: recombinant TEAD3 protein (218-435, Uniprot ID: Q99594) (Homo sapiens (Human), UniProt Q99594); test: Thermal shift assay (protein melting point curve), TEAD3; assay type: binding; details: 10 μM TEAD protein, 50 μM test compound
Sequence (Q99594 218-435): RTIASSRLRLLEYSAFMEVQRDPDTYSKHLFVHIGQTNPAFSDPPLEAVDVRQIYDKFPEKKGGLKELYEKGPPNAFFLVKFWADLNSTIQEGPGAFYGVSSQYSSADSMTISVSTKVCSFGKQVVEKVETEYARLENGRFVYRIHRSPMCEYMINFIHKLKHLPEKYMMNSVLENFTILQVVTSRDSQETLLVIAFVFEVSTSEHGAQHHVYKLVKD
readout_kind: Δ T m (TEAD3)

Below, 5 compounds whose answers are already recorded.
mol_smiles: CP(C)(=O)c1ccc(Nc2cccc(OC(F)(F)F)c2)c(-c2nccc(OC3COC3)n2)c1
readout_kind: Δ T m (TEAD3)
test_value: +
--
mol_smiles: CP(C)(=O)c1ccc(Nc2cccc(C(F)(F)F)c2)c(-c2nccc(OC3COC3)n2)c1
readout_kind: Δ T m (TEAD3)
test_value: +
--
mol_smiles: CP(C)(=O)c1ccc(Nc2ccc(C(F)(F)F)cc2)c(-c2nccc(OC3COC3)c2C#N)c1
readout_kind: Δ T m (TEAD3)
test_value: +
--
mol_smiles: CP(C)(=O)c1ccc(Nc2ccc(C(F)(F)F)cc2)c(-c2cnn(C3COC3)c2)c1
readout_kind: Δ T m (TEAD3)
test_value: ++
--
mol_smiles: CP(C)(=O)c1ccc(Nc2ccc(Br)cc2)c(-c2nccc(OC3COC3)n2)c1
readout_kind: Δ T m (TEAD3)
test_value: +

What measured Δ T m (TEAD3) goes with `CP(C)(=O)c1ccc(OCc2ccc(C(F)(F)F)cc2)c(-c2nccc(OC3COC3)n2)c1` ?
++

Reported Δ T m (TEAD3) for `CP(C)(=O)c1ccc(Nc2ccc(S(F)(F)(F)(F)F)cc2)c(-c2nccc(OC3COC3)n2)c1` : what is it?
+

Item `CP(C)(=O)c1ccc(NCc2ccc(C(F)(F)F)cc2)c(-c2ncn(C3CCOCC3)n2)c1` has what recorded Δ T m (TEAD3)?
+

Could you share which Δ T m (TEAD3) value was measured for `CP(C)(=O)c1ccc(NCc2cc(F)cc(F)c2)c(-c2ncccn2)c1` ?
+

Name the reported Δ T m (TEAD3) value associated with the compound `CP(C)(=O)c1ccc(Nc2ccc(C(F)(F)F)cc2)c(-c2nnc(NCCO)o2)c1`
+

Would you kindly share the measured Δ T m (TEAD3) for `CP(C)(=O)c1ccc(NC23CC(C(F)(F)F)(C2)C3)c(-c2nccc(OC3COC3)n2)c1` ?
++

What Δ T m (TEAD3) value was documented for this compound, `Cc1nnc(-c2cc(P(C)(C)=O)ccc2Nc2ccc(C(F)(F)F)cc2)o1` ?
++
